Hi there, I'd appreciate the recorded ΔTm for every entry that follows.
Tested on: Nucleic Acid
MEASUREMENT NOTES: Binding affinity to HIV1 TAR/cTAR RNA/DNA duplex assessed as change in melting temperature by […]
Assay type: nucleic-acid assay
APPLIED CONDITIONS: Human immunodeficiency virus 1
Hi! Could you send only the number? It should be in °C, unit omitted.

Record "NCCC(=O)NCCC(=O)Nc1ccc2c(c1)C(=O)c1ccc(NC(=O)CCNC(=O)CCN)cc1C2=O.O=C(O)C(F)(F)F.O=C(O)C(F)(F)F" , field ΔTm: 1.12

Value of measured ΔTm for the entry "NC1(C(=O)NCCC(=O)Nc2ccc3c(c2)C(=O)c2ccc(NC(=O)CCNC(=O)C4(N)CCNCC4)cc2C3=O)CCNCC1.O=C(O)C(F)(F)F.O=C(O)C(F)(F)F.O=C(O)C(F)(F)F.O=C(O)C(F)(F)F" : 1.12

Documented ΔTm of "O=C(CCNC(=O)C1CCNCC1)Nc1ccc2c(c1)C(=O)c1ccc(NC(=O)CCNC(=O)C3CCNCC3)cc1C2=O.O=C(O)C(F)(F)F.O=C(O)C(F)(F)F" : 0.65

The molecule listed as NCCCC(N)C(=O)NCCC(=O)Nc1ccc2c(c1)C(=O)c1ccc(NC(=O)CCNC(=O)C(N)CCCN)cc1C2=O.O=C(O)C(F)(F)F.O=C(O)C(F)(F)F.O=C(O)C(F)(F)F.O=C(O)C(F)(F)F (stereo not given) has a reported ΔTm of 3.1

ΔTm recorded for this molecule, NCC(N)C(=O)NCCC(=O)Nc1ccc2c(c1)C(=O)c1ccc(NC(=O)CCNC(=O)C(N)CN)cc1C2=O.O=C(O)C(F)(F)F.O=C(O)C(F)(F)F.O=C(O)C(F)(F)F.O=C(O)C(F)(F)F (stereo not given) , is 0.28

###

MEASUREMENT NOTES: Inhibition of NC-induced HIV1 TAR/cTAR annealing assessed as change in melting temperature preincubated for 15 mins before NC addition measured after 15 mins by gel electrophoresis
Design: species or system Human immunodeficiency virus 1
Decision: IC50 beneath 40 µM gives T; IC50 meeting or exceeding 40 µM gives F.

Ask: Does this molecule meet the criterion IC50 < 40 µM? NCCC(N)C(=O)NCCC(=O)Nc1ccc2c(c1)C(=O)c1ccc(NC(=O)CCNC(=O)C(N)CCN)cc1C2=O.O=C(O)C(F)(F)F.O=C(O)C(F)(F)F.O=C(O)C(F)(F)F.O=C(O)C(F)(F)F (stereo unspecified)
Result: F

Ask: Please indicate whether the reported IC50 of "O=C(CCNC(=O)C1CCNCC1)Nc1ccc2c(c1)C(=O)c1ccc(NC(=O)CCNC(=O)C3CCNCC3)cc1C2=O.O=C(O)C(F)(F)F.O=C(O)C(F)(F)F" is strictly below 40 µM.
Result: F

Ask: Could you please tell me whether IC50 recorded for Nc1ccc(CC(N)C(=O)NCCC(=O)Nc2ccc3c(c2)C(=O)c2ccc(NC(=O)CCNC(=O)C(N)Cc4ccc(N)cc4)cc2C3=O)cc1.O=C(O)C(F)(F)F.O=C(O)C(F)(F)F.O=C(O)C(F)(F)F.O=C(O)C(F)(F)F (stereo unspecified) is less than 40 µM?
Result: F

Ask: Threshold test, IC50 < 40 µM: NCCCC(N)C(=O)NCCC(=O)Nc1ccc2c(c1)C(=O)c1ccc(NC(=O)CCNC(=O)C(N)CCCN)cc1C2=O.O=C(O)C(F)(F)F.O=C(O)C(F)(F)F.O=C(O)C(F)(F)F.O=C(O)C(F)(F)F (stereo unspecified)
Result: T

Ask: Threshold test, IC50 < 40 µM: NCCCCC(N)C(=O)NCCC(=O)Nc1ccc2c(c1)C(=O)c1ccc(NC(=O)CCNC(=O)C(N)CCCCN)cc1C2=O (stereo unspecified)
Result: F

Ask: Strictly below 40 µM: is that where IC50 of "NCCC(=O)NCCC(=O)Nc1ccc2c(c1)C(=O)c1ccc(NC(=O)CCNC(=O)CCN)cc1C2=O.O=C(O)C(F)(F)F.O=C(O)C(F)(F)F" sits?
Result: F
